For each record, write down the corresponding pIC50.
- TARGET ENTITY: NEP (EC.3.4.24.11) from human kidney (Homo sapiens, UniProt P08473)
- Sequence (P08473 whole entry): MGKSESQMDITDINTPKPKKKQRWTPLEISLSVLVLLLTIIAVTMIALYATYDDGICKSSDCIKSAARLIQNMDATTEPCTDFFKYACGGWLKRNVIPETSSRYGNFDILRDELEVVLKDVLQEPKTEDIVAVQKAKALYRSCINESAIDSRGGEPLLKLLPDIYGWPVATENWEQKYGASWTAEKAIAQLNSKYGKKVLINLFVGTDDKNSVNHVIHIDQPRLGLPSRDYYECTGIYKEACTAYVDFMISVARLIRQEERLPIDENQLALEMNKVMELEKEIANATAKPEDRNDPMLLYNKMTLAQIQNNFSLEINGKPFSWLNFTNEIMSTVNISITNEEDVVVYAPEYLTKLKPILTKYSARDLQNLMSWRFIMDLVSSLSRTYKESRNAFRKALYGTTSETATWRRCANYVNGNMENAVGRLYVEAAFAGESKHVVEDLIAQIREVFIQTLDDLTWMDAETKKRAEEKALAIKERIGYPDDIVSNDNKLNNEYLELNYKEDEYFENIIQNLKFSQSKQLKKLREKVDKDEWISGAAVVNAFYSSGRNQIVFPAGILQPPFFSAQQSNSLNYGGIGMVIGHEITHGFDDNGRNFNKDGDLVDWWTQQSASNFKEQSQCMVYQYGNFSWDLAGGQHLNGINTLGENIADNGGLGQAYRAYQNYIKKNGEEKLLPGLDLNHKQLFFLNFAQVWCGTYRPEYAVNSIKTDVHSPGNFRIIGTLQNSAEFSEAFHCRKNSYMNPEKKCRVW
// returns pIC50 (minus log10 of molar concentration), number only

State the recorded pIC50 for this entry: `COCC[C@H](CC1(C(=O)N[C@@H](CCOc2ccc(Cl)cc2)CC(=O)O)CCCC1)C(=O)O` 8.62

I have this compound here, `COCC[C@H](CC1(C(=O)N[C@@H](CCCc2ccc(Cl)cc2)CC(=O)O)CCCC1)C(=O)O` , and I need its recorded pIC50. 9.15
